Parameter protein stability index: see the listing below.
B1: RSPH3 (parent)
chain: MTVKPAKAASLARNLAKRRRTYLG

Variants of: B1
Procedure summary: protein stability index of a GFP-peptide fusion (GPS, HEK-293T) (PSI 1-6); higher = more stable;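 further: lentivirally expressed fusions sorted by FACS into six bins by GFP to DsRed ratio, PSI derived from sequencing read proportions per bin multiplied by bin number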
Settings: c terminus: a fixed tail appended

| Mutation string | protein stability index |
| --- | --- |
| A6D | 1.79 |
| R20A | 2.41 |
| A16L | 2.35 |
| R19I | 1.77 |
| R19C | 1.6 |
| A9I | 1.79 |
| T2Q | 2.61 |
| A6P | 3.92 |
| K7Y | 2.23 |
| V3T | 3.5 |
| A8Q | 2.5 |
| K7V | 2.44 |
| Y22E | 3.12 |
| R20L | 1.81 |
| Y22G | 4.24 |
| A12P | 2.87 |
| P5C | 2.05 |
| R19V | 1.45 |
| T2L | 2.17 |
| T2E | 2.98 |
| G24Y | 2.42 |
| L23G | 4.13 |
| R20Y | 1.51 |
| K7Q | 3.88 |
| P5M | 2.92 |
| N14S | 2.62 |
| A12G | 3.21 |
| T21K | 3.9 |
| R18P | 2.38 |
| A9S | 2.95 |
| A6Q | 3.58 |
| R18E | 3.33 |
| M1N | 3.88 |
| R13V | 2.56 |
| N14C | 2.14 |
| P5R | 2.48 |
| A6F | 3.04 |
| A9R | 2.42 |
| T21C | 2.73 |
| K7R | 2.96 |
| A8R | 2.3 |
| A9G | 2.71 |
| Y22R | 3.03 |
| R19E | 3.49 |
| K17V | 2.64 |
| A16V | 3.28 |
| S10P | 3.1 |
| R20K | 3.12 |
| G24S | 3.15 |
| M1E | 2.46 |
| N14G | 3.21 |
| S10C | 2.01 |
| A6E | 3.24 |
| S10R | 3.92 |
| T21G | 2.83 |
| A8G | 2.4 |
| K4T | 3.38 |
| Y22P | 3.26 |
| A8L | 2.65 |
| A8I | 2.17 |
| T2S | 2.96 |
| R18D | 3 |
| T2N | 3.75 |
| A12Q | 3.11 |
| K4I | 1.87 |
| T21P | 2.92 |
| G24N | 3.18 |
| T21Q | 3.21 |
| P5E | 2.52 |
| R18A | 3.3 |
| A9N | 3.58 |
| T2D | 2.88 |
| K4H | 3.7 |
| A12F | 1.94 |
